- Tested on: H9 cells
- experiment-summary: qHTS for survival of dissociated H9 cells (CellTiter-Glo, 24 hours after seeding)
- Assay type: cell-based, human
- conditions-used: Homo sapiens, H9, 24 h; read-out: Efficacy (activity range between predicted activities at zero and infinite doses, Hill equation)

molecule	Emax (%)
Cc1c[nH]c2ncnc(N3CCC(CN)(C(=O)Nc4cccc(OC(=O)N(C)C)c4)CC3)c12 [LX-7101]	21.6
O=C1NC(=O)C(=O)C(=O)N1 [ALLOXAN]	27.2
C/C=C(/C)C(=O)O[C@H]1C(C)=C[C@]23C(=O)[C@@H](C=C(CO)[C@@H](O)[C@]12O)[C@H]1[C@@H](C[C@H]3C)C1(C)C [Ingenol mebutate]	41.4
C[C@H](NC(=O)C(=O)Nc1ccccc1C(C)(C)C)C(=O)N[C@@H](CC(=O)O)C(=O)COc1c(F)c(F)cc(F)c1F [Emricasan]	95.8
CCC[C@@]1(CCc2ccccc2)CC(O)=C([C@H](CC)c2cccc(NS(=O)(=O)c3ccc(C(F)(F)F)cn3)c2)C(=O)O1 [Tipranavir]	26.5
C[S+]([O-])c1ccc(-c2nc(-c3ccncc3)c(-c3ccc(F)cc3)[nH]2)cc1 (stereo not shown) [SB-203580]	37.4
Cc1c(O)c(O)cc2c1CC=C1[C@@]2(C)CC[C@@]2(C)[C@@H]3C[C@](C)(C(=O)O)CC[C@]3(C)CC[C@]12C [DIHYDROCELASTROL]	26.1

---

- Tested on: H9 cells
- experiment-summary: qHTS for survival of dissociated H9 cells (CellTiter-Glo, 24 hours after seeding)
- Type: cell-based, human
- conditions-used: Homo sapiens, H9, 24 h, H9 cell survival normalized to 10 μM Y-27632 (taken to be 100%); read-out: Max (maximum activity value from all tested concentrations)

compound	Emax
CCS(=O)(=O)N1CCN(c2ccc(Nc3ncc(C(N)=O)c(NC4CC4)n3)cc2)CC1 [Cerdulatinib]	39%
O=C(c1ccc(/C=C/c2n[nH]c3ccccc23)cc1)N1CCNCC1 [KW-2449]	40%
Cc1n[nH]c2ccc(-c3cncc(OC[C@@H](N)Cc4c[nH]c5ccccc45)c3)cc12 [A-443654]	39.8%
Oc1cccc2c(O)nccc12 [1,5-Isoquinolinediol]	41%

Origin of values: patent US20210348119A1
